src = patent US11339181B2

experiment: Solubility test (shaken at 20° C. for 3 hours, filtered, HPLC); type: physicochemical; settings: JP 2nd fluid for solubility test, 20 °C, pH 6.8, aqueous buffer, thermodynamic from solid, Solvent: JP 2nd fluid for solubility test (water / phosphate buffer pH 6.8, 1:1); 20° C., shaken 3 hours
Readout name: solubility at 3 h (µg/mL)
Answers are plain numbers, in µg/mL.

### Prompt For C[C@H]1CN(C(=O)CC#N)[C@]12CCN(c1ncnc3[nH]ccc13)C2 [Form α] , what is its reported solubility at 3 h?
### Response 2700

* * *

assay: Solubility test (shaken at 20° C. for 3 hours, filtered, HPLC); assay type: physicochemical; conditions: JP 1st fluid for solubility test, 20 °C, pH 1.2, simulated gastric fluid, thermodynamic from solid, Solvent: JP 1st fluid for solubility test, pH about 1.2; 20° C., shaken 3 hours
Readout name: solubility at 3 h (mg/mL)
One number for each entry, in mg/mL.

### Prompt For C[C@H]1CN(C(=O)CC#N)[C@]12CCN(c1ncnc3[nH]ccc13)C2 [Form α] , what is its reported solubility at 3 h?
### Response 45
